# Tested on: Staphylococcus aureus
# Assay Method Text: Antibacterial activity against methicillin-sensitive Staphylococcus aureus 14-3 after 18 to 24 hrs
# Assay type: functional
Entries and their MIC
Number only, in µg/mL; omit the unit.

Examples with answers:
compound="CCO/N=C1\\CN(c2nc3c(cc2F)c(=O)c(C(=O)O)cn3[C@@H]2C[C@@H]2F)CC1(C)N (stereo not given in full)" observation_type=MIC observed_value=0.5
compound="NCC1CN(c2nc3c(cc2F)c(=O)c(C(=O)O)cn3[C@@H]2C[C@@H]2F)C/C1=N\\OCc1ccc2c(c1)OCO2 (stereo not given in full)" observation_type=MIC observed_value=8
compound="NCC1CN(c2nc3c(cc2F)c(=O)c(C(=O)O)cn3[C@@H]2C[C@@H]2F)C/C1=N\\OCc1ccc(Br)cc1 (stereo not given in full)" observation_type=MIC observed_value=0.015
compound="NCC1CN(c2nc3c(cc2F)c(=O)c(C(=O)O)cn3[C@@H]2C[C@@H]2F)C/C1=N\\OCc1ccc(Cl)cc1 (stereo not given in full)" observation_type=MIC observed_value=0.015
compound=C[C@H]1COc2c(N3CCN(C)CC3)c(F)cc3c(=O)c(C(=O)O)cn1c23.C[C@H]1COc2c(N3CCN(C)CC3)c(F)cc3c(=O)c(C(=O)O)cn1c23.O observation_type=MIC observed_value=0.125

Now examine the next entry.
Exam item: Any idea what MIC was measured for COc1cc(CO/N=C2\CN(c3nc4c(cc3F)c(=O)c(C(=O)O)cn4[C@@H]3C[C@@H]3F)CC2CN)cc(OC)c1 (stereo not given in full) ?
Marked response: 0.015

----------
# Test system: Staphylococcus aureus
# Assay Method Text: Antibacterial activity against methicillin-sensitive Staphylococcus aureus 14-1 after 18 to 24 hrs
# Assay type: functional
Exam item: assign true (1) to entries whose MIC is below 4 µg/mL and false (0) to entries at or above 4 µg/mL. Note that a value of exactly 4 µg/mL receives false (0).

compound="CC1(CN)CN(c2nc3c(cc2F)c(=O)c(C(=O)O)cn3[C@@H]2C[C@@H]2F)C/C1=N\\OCc1ccccc1 (stereo not given in full)" label="true (1)"
compound="CCO/N=C1\\CN(c2nc3c(cc2F)c(=O)c(C(=O)O)cn3[C@@H]2C[C@@H]2F)CC1(C)N (stereo not given in full)" label="false (0)"
compound="NCC1CN(c2nc3c(cc2F)c(=O)c(C(=O)O)cn3[C@@H]2C[C@@H]2F)C/C1=N\\OCc1ccc(Cl)cc1 (stereo not given in full)" label="true (1)"

Exam item: Does the reported MIC of the following compound sit strictly below 4 µg/mL? CO/N=C1\CN(c2nc3c(cc2F)c(=O)c(C(=O)O)cn3[C@@H]2C[C@@H]2F)CC1(C)CN (stereo not given in full)
Marked response: true (1)

Exam item: Also CC1(N)CN(c2nc3c(cc2F)c(=O)c(C(=O)O)cn3[C@@H]2C[C@@H]2F)C/C1=N\OCc1ccccc1 (stereo not given in full) ?
Marked response: false (0)

Exam item: Also COc1ccc(CO/N=C2\CN(c3nc4c(cc3F)c(=O)c(C(=O)O)cn4[C@@H]3C[C@@H]3F)CC2CN)cc1 (stereo not given in full) ?
Marked response: true (1)

Exam item: Also Cc1ccc(CO/N=C2\CN(c3nc4c(cc3F)c(=O)c(C(=O)O)cn4[C@@H]3C[C@@H]3F)CC2CN)cc1 (stereo not given in full) ?
Marked response: true (1)
